Provide the recorded Ratio for the entries that follow.
# Tested on: Liver
# test-method-notes: Ratio of drug level in rat liver intra-mitochondria to extra-mitochondria at 1 uM in presence of succinate/valinomycin by TPP+-based electrode assay
# Type: ADME, tissue-based
One number for each entry.

Worked examples follow.
CS(=O)(=O)[O-].O=C(/C=C/c1cc(O)c(O)c(O)c1)NCCCCCC[P+](c1ccccc1)(c1ccccc1)c1ccccc1 | 2100
CS(=O)(=O)[O-].O=C(/C=C/c1ccc(O)c(O)c1)NCC[P+](c1ccccc1)(c1ccccc1)c1ccccc1 | 600
CS(=O)(=O)[O-].O=C(/C=C/c1ccc(O)c(O)c1)NCCCCCC[P+](c1ccccc1)(c1ccccc1)c1ccccc1 | 2500
CS(=O)(=O)[O-].O=C(/C=C/c1ccc(O)c(O)c1)NCCCCCCCC[P+](c1ccccc1)(c1ccccc1)c1ccccc1 | 5100
CS(=O)(=O)[O-].O=C(/C=C/c1ccc(O)c(O)c1)NCCCCCCCCCC[P+](c1ccccc1)(c1ccccc1)c1ccccc1 | 2700

For each of the compounds below, state Ratio.
1. CS(=O)(=O)[O-].O=C(/C=C/c1cc(O)c(O)c(O)c1)NCCCCCCCC[P+](c1ccccc1)(c1ccccc1)c1ccccc1
2. CS(=O)(=O)[O-].O=C(/C=C/c1cc(O)c(O)c(O)c1)NCCCCCCCCCC[P+](c1ccccc1)(c1ccccc1)c1ccccc1

OUTPUT:
1. 3900
2. 3500

Entry source: ChEMBL document CHEMBL4038331
